- Measured Target: BG505 SOSIP.664-N137A trimer, produced in 293S cells (HIV-1 (clade A strain BG505))
- Experimental Details: ITC
Measured Parameter: fold enhanced affinity against its binding to the wild-type trimer
Answer shape: numeric part, then the unit.

I have this binder here, PGT124 (mature bnAb of the PGT121 family) (Fab, V domains shown) VH: QVQLQESGPGLVRPSETLSVTCIVSGGSISNYYWTWIRQSPGKGLEWIGYISDRETTTYNPSLNSRAVISRDTSKNQLSLQLRSVTTADTAIYFCATARRGQRIYGVVSFGEFFYYYYMDVWGKGTAVTVSS VL: SYVSPLSVALGETARISCGRQALGSRAVQWYQHKPGQAPILLIYNNQDRPSGIPERFSGTPDINFGTTATLTISGVEVGDEADYYCHMWDSRSGFSWSFGGATRLTVL , and I need its recorded fold enhanced affinity against its binding to the wild-type trimer.
5 fold

Attribution: paper PMC4692269
